Data origin: paper PMC6424957

Test system: isolated rat liver mitochondria
Assay: Mitochondrial membrane potential (safranine O)
Assay type: biochemical
Details: 30 µM, 10-min incubation; energized with succinate in the presence of rotenone; mean ± SD, n ≥ 5
recordedEndpoint: ΔΨm, % depolarization, CII (s/r)
Provide a numeric answer, followed by its unit.

Examples with answers:
CCCN1CCc2c(c3cc(C)ccc3n2CCC(=O)N2c3ccc(N(C)C)cc3Sc3cc(N(C)C)ccc32)C1.Cl.Cl.Cl | 69 ± 2%
CCN1CCc2c(c3cc(C)ccc3n2CCC(=O)N2c3ccc(N(C)C)cc3Sc3cc(N(C)C)ccc32)C1.Cl.Cl.Cl | 43 ± 3%
CN(C)c1ccc2c(c1)Sc1cc(N(C)C)ccc1N2 [MBH2, leucomethylene blue, reference compound] | 18 ± 1%

Next, consider the following compound.
The value of ΔΨm, % depolarization, CII (s/r) recorded for `Cc1ccc2c(c1)c1c(n2CCC(=O)N2c3ccc(N(C)C)cc3Sc3cc(N(C)C)ccc32)CCN(C(C)C)C1.Cl.Cl.Cl` when tested on isolated rat liver mitochondria reads 44 ± 5%

----------
Molecular target: peripheral anionic site (PAS) of EeAChE (Electrophorus electricus)
Construct: from human erythrocyte and E. electricus (EeAChE) (type VI-S); purchased Sigma-Aldrich (Germany) type VI-S; host or cells: Electrophorus electricus tissue
Assay type: binding
Conditions: compound 20 µM; EeAChE 7 μM, propidium iodide 8 μM
Entries and their measured % Displacement of propidium iodide, 20 µM follow.
Note: unit % is implicit; provide only the numeric part.

Before answering, review these 5 worked examples.
CCN1CCc2c(c3cc(C)ccc3n2CCC(=O)N2c3ccc(N(C)C)cc3Sc3cc(N(C)C)ccc32)C1.Cl.Cl.Cl | 37.6
CN(C)c1ccc2c(c1)Sc1cc(N(C)C)ccc1N2 [MBH2, leucomethylene blue, reference compound] | 36.9
Cc1ccc2c(c1)c1c(n2CCC(=O)N2c3ccc(N(C)C)cc3Sc3cc(N(C)C)ccc32)CCN(C)C1 | 35.6
Cc1ccc2c(c1)c1c(n2CCc2ccc(C)nc2)CCN(C)C1 [Dimebon, reference compound] | 6.0
Cc1ccc2c(c1)c1c(n2CCC(=O)N2c3ccc(N(C)C)cc3Sc3cc(N(C)C)ccc32)CCN(C(C)C)C1.Cl.Cl.Cl | 30.0

For `CCCN1CCc2c(c3cc(C)ccc3n2CCC(=O)N2c3ccc(N(C)C)cc3Sc3cc(N(C)C)ccc32)C1.Cl.Cl.Cl` the compound record lists % Displacement of propidium iodide, 20 µM as 35.1

According to the records, this compound `CN1CCc2c(c3cc(F)ccc3n2CCC(=O)N2c3ccc(N(C)C)cc3Sc3cc(N(C)C)ccc32)C1` displays % Displacement of propidium iodide, 20 µM of 29.8

In plain terms, `CCN1CCc2c(c3ccccc3n2CCC(=O)N2c3ccc(N(C)C)cc3Sc3cc(N(C)C)ccc32)C1.Cl.Cl.Cl` has a documented % Displacement of propidium iodide, 20 µM of 37.1

----------
Target: peripheral anionic site (PAS) of EeAChE (Electrophorus electricus, UniProt O42275)
Construct: from human erythrocyte and E. electricus (EeAChE) (type VI-S); purchased Sigma-Aldrich (Germany) type VI-S; host or cells: Electrophorus electricus tissue
Sequence (O42275 24-633): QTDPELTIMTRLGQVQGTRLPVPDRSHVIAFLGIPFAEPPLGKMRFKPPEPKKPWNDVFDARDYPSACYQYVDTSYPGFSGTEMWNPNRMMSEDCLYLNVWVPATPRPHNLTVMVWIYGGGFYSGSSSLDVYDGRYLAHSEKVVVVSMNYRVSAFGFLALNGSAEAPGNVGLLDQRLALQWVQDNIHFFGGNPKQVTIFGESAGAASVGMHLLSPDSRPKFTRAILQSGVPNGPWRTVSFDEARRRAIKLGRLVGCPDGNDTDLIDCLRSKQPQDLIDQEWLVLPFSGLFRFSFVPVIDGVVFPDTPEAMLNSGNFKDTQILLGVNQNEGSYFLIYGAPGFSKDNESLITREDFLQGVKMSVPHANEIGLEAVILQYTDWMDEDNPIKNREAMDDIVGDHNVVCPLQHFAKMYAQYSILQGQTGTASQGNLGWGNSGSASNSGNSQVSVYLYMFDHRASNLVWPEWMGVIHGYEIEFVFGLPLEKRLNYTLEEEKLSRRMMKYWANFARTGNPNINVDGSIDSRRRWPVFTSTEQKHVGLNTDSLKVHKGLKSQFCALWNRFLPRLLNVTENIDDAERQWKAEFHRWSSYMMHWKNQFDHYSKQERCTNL
Type: binding
Conditions: compound 3 µM; EeAChE 7 μM, propidium iodide 8 μM
Text: The fluorescent assay used to evaluate competitive propidium iodide displacement from the PAS of AChE is commonly used as primary screening method of AChE pro-aggregation activity inhibitors. Propidium iodide is a selective ligand for the PAS of AChE responsible for Aβ binding. EeAChE was used owing to its high degree of purification, high activity, and lower cost than human AChE. […] The fluorescence intensity of propidium iodide bound with AChE increases several times. […]
The following compounds are listed with their measured % Displacement of propidium iodide, 3 µM values.

Examples with answers:
CN(C)c1ccc2c(c1)Sc1cc(N(C)C)ccc1N2 [MBH2, leucomethylene blue, reference compound] | 17.7 ± 1.8%
Cc1ccc2c(c1)c1c(n2CCC(=O)N2c3ccc(N(C)C)cc3Sc3cc(N(C)C)ccc32)CCN(C(C)C)C1.Cl.Cl.Cl | 7.7 ± 0.5%
CCN1CCc2c(c3ccccc3n2CCC(=O)N2c3ccc(N(C)C)cc3Sc3cc(N(C)C)ccc32)C1.Cl.Cl.Cl | 12.9 ± 1.1%

Read the next record carefully.
What the record says about `CN1CCc2c(c3cc(F)ccc3n2CCC(=O)N2c3ccc(N(C)C)cc3Sc3cc(N(C)C)ccc32)C1` : % Displacement of propidium iodide, 3 µM is 6.7 ± 0.5%
